study target: T1, Anti-CRP antibody(r)
T1 construct: also called rabbit IgG (CRP)
measurement notes: labelled peptide on antibody immobilised on microplate; antigen CRP
Ends that are not written are not given here. FAM = carboxyfluorescein (FAM) fluorescent label
recorded metric: change (%) of fluorescence in solution (S)
Numbers only here, please. The scale is %.

Data request: # return recorded change (%) of fluorescence in solution (S) for entry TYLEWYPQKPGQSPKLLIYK (not fully specified (N-terminus), Synthetic 20-mer homologous to the FR2 region of the light chain; The label differs between experiments; also called L1 switching peptide; first peptide compound L1) [L1 peptide]
Data returned: 778

Data request: # return recorded change (%) of fluorescence in solution (S) for entry {FAM}-VYYCFQGSHVPFTK (Synthetic 14-mer homologous to the FR3 or FR4 region of the light chain; also called L2 switching peptide; second peptide compound L2) [L2 peptide]
Data returned: 883

Data request: # return recorded change (%) of fluorescence in solution (S) for entry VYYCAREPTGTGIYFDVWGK (not fully specified (N-terminus), Synthetic 20-mer homologous to the FR3 or FR4 region of the heavy chain; The label differs between experiments; also called H2 switching peptide; fourth peptide compound H2) [H2 peptide]
Data returned: 677

Data request: # return recorded change (%) of fluorescence in solution (S) for entry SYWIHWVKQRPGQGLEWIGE (not fully specified (N-terminus), Synthetic 20-mer homologous to the FR2 region of the heavy chain; The fluorescent label differs between experiments; also called H1 switching peptide; third peptide compound H1) [H1 peptide]
Data returned: 152
